# testMethodNotes: in vitro
# recordedConditions: dog
quantityName: CC50 at 72 h

-- ask Recorded CC50 at 72 h for NC(=O)c1ncn([C@@H]2O[C@H](CO)[C@@H](O)[C@H]2O)n1 [Ribavirin, reference compound] , please?
-- reply > 2000 µM

* * *

# testMethodNotes: In vivo toxicity study (LD50)
quantityName: LD50

-- ask Recorded LD50 for CC(=O)NC12CC(C)(C)C3CCC1(C)CCCC32C (stereo not shown) , please?
-- reply > 5000 mg/kg

* * *

# Test system: influenza virus A/Puerto Rico/8/34 (H1N1)
# testMethodNotes: organism not typed
# Assay type: cell-based
# recordedConditions: MDCK, 72 h, read-out: IC50 H1N1
quantityName: IC50

In the examples that follow, each entry is paired with its recorded IC50.
compound | reported
CCOC(=O)C1=C[C@@H](OC(CC)CC)[C@H](NC(C)=O)[C@@H](N)C1 [Oseltamivir, reference compound] | 0.31 µM
CC(N)C12CC3CC(CC(C3)C1)C2 (stereo not shown) [Rimantadine, reference compound] | 67 µM
CC(C)C(=O)NC12CC(C)(C)C3CCC1(C)CCCC32C (stereo not shown) | 0.21 µM

Pending compound:
-- ask Recorded IC50 for NC(=O)c1ncn([C@@H]2O[C@H](CO)[C@@H](O)[C@H]2O)n1 [Ribavirin, reference compound] , please?
-- reply 24.6 µM

* * *

# System: influenza virus A/Puerto Rico/8/34 (H1N1)
# testMethodNotes: organism not typed
# Assay type: cell-based
Decision: SI compared against 900; not below it gives Criterion met, below it gives Criterion not met.

compound | labelClass
CC1(C)CC2(NC(=O)c3ccccc3)C3(C)CCCC2(C)C1CC3 (stereo not shown) [Compound 1d] | Criterion not met

-- ask Identify whether the reported SI of the following compound is 900 or greater: CC(=S)NC12CC(C)(C)C3CCC1(C)CCCC32C (stereo not shown) [Compound 3]
-- reply Criterion met

-- ask Identify whether the reported SI of the following compound is 900 or greater: CC1(C)CC2(N)C3(C)CCCC2(C)C1CC3.Cl (stereo not shown) [Compound 2]
-- reply Criterion not met

-- ask Identify whether the reported SI of the following compound is 900 or greater: CC(N)C12CC3CC(CC(C3)C1)C2 (stereo not shown) [Rimantadine, reference compound]
-- reply Criterion not met

-- ask Identify whether the reported SI of the following compound is 900 or greater: CC(C)C(=O)NC12CC(C)(C)C3CCC1(C)CCCC32C (stereo not shown) [Compound 1c]
-- reply Criterion met

* * *

# testMethodNotes: in vitro
# recordedConditions: dog
quantityName: CC50 (µM)
The reply should contain only the number, in µM.

-- ask Recorded CC50 for CCC(=O)NC12CC(C)(C)C3CCC1(C)CCCC32C (stereo not shown) , please?
-- reply 128

-- ask Recorded CC50 for CC1(C)CC2(N)C3(C)CCCC2(C)C1CC3.Cl (stereo not shown) , please?
-- reply 15.4

* * *

# Test system: influenza virus A/Puerto Rico/8/34 (H1N1)
# testMethodNotes: organism not typed
# Type: cell-based
# recordedConditions: MDCK, 72 h, read-out: IC50 H1N1
quantityName: pIC50
Just the number, please; pIC50 means minus log10 of the concentration in mol/L.

In the examples that follow, each entry is paired with its recorded pIC50.
molecule | tgt | quantityName | reported
CCC(=O)NC12CC(C)(C)C3CCC1(C)CCCC32C (centres unmarked) [Compound 1b] | influenza virus A/Puerto Rico/8/34 (H1N1) | pIC50 | 6.84
CC(=S)NC12CC(C)(C)C3CCC1(C)CCCC32C (centres unmarked) [Compound 3] | influenza virus A/Puerto Rico/8/34 (H1N1) | pIC50 | 5.95
CC(=O)NC12CC(C)(C)C3CCC1(C)CCCC32C (centres unmarked) [Compound 1a] | influenza virus A/Puerto Rico/8/34 (H1N1) | pIC50 | 6.82
CC1(C)CC2(N)C3(C)CCCC2(C)C1CC3.Cl (centres unmarked) [Compound 2] | influenza virus A/Puerto Rico/8/34 (H1N1) | pIC50 | 6.35

Pending molecule:
-- ask Request body: readout pIC50, system influenza virus A/Puerto Rico/8/34 (H1N1), query CC1(C)CC2(NC(=O)c3ccccc3)C3(C)CCCC2(C)C1CC3 (centres unmarked) [Compound 1d] . Return the value.
-- reply 5.04
